Reference source for all entries: patent US20210380548A1

- System: TIP60-KAT5 (Homo sapiens)
- Construct: encoding amino acid residues 2 to 461 (Uniprot Q92993-2) of human KAT5 isoform; made in house; host or cells: E. coli BL21 DE3
- Sequence (Q92993 2-461 isoform Q92993-2): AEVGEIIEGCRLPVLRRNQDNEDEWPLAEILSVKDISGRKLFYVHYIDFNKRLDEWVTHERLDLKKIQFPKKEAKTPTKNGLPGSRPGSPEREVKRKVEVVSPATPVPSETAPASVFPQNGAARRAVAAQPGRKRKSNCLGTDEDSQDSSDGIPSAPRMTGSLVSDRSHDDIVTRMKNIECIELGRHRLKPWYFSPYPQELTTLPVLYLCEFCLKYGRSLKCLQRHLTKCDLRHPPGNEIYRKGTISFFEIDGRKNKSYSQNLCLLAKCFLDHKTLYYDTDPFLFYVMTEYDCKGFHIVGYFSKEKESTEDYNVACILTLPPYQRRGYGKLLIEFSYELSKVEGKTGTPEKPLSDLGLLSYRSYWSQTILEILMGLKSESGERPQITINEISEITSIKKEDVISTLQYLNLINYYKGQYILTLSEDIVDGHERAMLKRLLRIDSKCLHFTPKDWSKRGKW
- Measurement notes: Revised Acetyltransferase Biochemical Assay, KAT5
- Conditions used: 10 nM KAT5, 1 μM AcCoA, 100 nM histone H4, 90 min
// returns class 0 unless IC50 is strictly below 7000 nM, in which case class 1

Query: Say whether its IC50 is strictly beneath 7000 nM. Entry: O=C(NCC(c1ncco1)c1ccccc1F)C1=Nc2ccc(Cl)cc2S(=O)(=O)N1 (stereo not shown)
Response: class 1

Query: Say whether its IC50 is strictly beneath 7000 nM. Entry: O=C(NCC(c1ccccc1)c1ncco1)C1=Nc2ccc(O)cc2S(=O)(=O)N1 (stereo not shown)
Response: class 1

Query: Say whether its IC50 is strictly beneath 7000 nM. Entry: "O=C(NCCc1ccccc1-c1ncco1)C1=Nc2ccc(I)cc2S(=O)(=O)N1"
Response: class 1

Query: Say whether its IC50 is strictly beneath 7000 nM. Entry: O=C(NCC(c1ccccc1)c1ncco1)C1=Nc2ccc(F)cc2S(=O)(=O)N1 (single isomer, unassigned) [Example 145]
Response: class 0

Query: Say whether its IC50 is strictly beneath 7000 nM. Entry: O=C(NCC(c1ccccc1)c1ncco1)C1=Nc2ccc(Br)cc2S(=O)(=O)N1 (stereo not shown) [Example 1]
Response: class 1

Query: Say whether its IC50 is strictly beneath 7000 nM. Entry: "O=C(NCCc1ccccc1OC(F)F)C1=Nc2ccc(I)cc2S(=O)(=O)N1"
Response: class 1

Query: Say whether its IC50 is strictly beneath 7000 nM. Entry: O=C(NCC(c1ccccn1)n1cccn1)C1=Nc2ccc(Br)cc2S(=O)(=O)N1 (stereo not shown)
Response: class 0

Query: Say whether its IC50 is strictly beneath 7000 nM. Entry: COc1ccccc1C(CNC(=O)C1=Nc2ccc(Cl)cc2S(=O)(=O)N1)c1ncco1 (stereo not shown)
Response: class 1

Query: Say whether its IC50 is strictly beneath 7000 nM. Entry: O=C(NCC(c1ccccc1)c1nccs1)C1=Nc2ccc(Cl)cc2S(=O)(=O)N1 (stereo not shown)
Response: class 1

Query: Say whether its IC50 is strictly beneath 7000 nM. Entry: "O=C(NCC1(c2ccccc2)CCCC1)C1=Nc2ccccc2S(=O)(=O)N1"
Response: class 0

Query: Say whether its IC50 is strictly beneath 7000 nM. Entry: O=C(NCC(c1ccccc1)n1cccn1)C1=Nc2ccccc2S(=O)(=O)N1 (stereo not shown)
Response: class 0

Query: Say whether its IC50 is strictly beneath 7000 nM. Entry: "Cc1ncccc1-c1ccccc1CCNC(=O)C1=Nc2ccccc2S(=O)(=O)N1"
Response: class 0

Query: Say whether its IC50 is strictly beneath 7000 nM. Entry: "COC(=O)c1ccc2c(c1)S(=O)(=O)NC(C(=O)NCC(c1ccccc1)c1ccccc1)=N2"
Response: class 0
